test: protein stability index of a GFP-peptide fusion (GPS, HEK-293T) (PSI 1-6); higher = more stable; conditions: treatment: DMSO; c terminus: a fixed tail appended;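 further: 24-mer peptide tiles fused after GFP, lentivirally expressed, FACS-sorted into six equal bins by GFP/DsRed ratio, decoded by Illumina sequencing, PSI is the read-weighted mean bin number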
property.label: protein stability index

In [3]: df
Out[3]:
                             residues           property_label  measurement
0    KYLVEHKADLEVSNRHGHTCLMIS [FEM1C]  protein stability index         2.53
1  DVPTIQEKVNEGKYRSYEEFKADA [ZMYND11]  protein stability index         5.21
2    LFGFSAVSIMYLVLVLAVQVHAWQ [JAGN1]  protein stability index          3.8
3  TLRPTDSQSHCYRTCFSPASDGSD [PCDHGC5]  protein stability index         3.93
4    EEEISETGELVGPFVSAMPTPMPH [ZBED2]  protein stability index          5.1
5    AGQKRKHSEGRVEVYYDGQWGTVC [LOXL2]  protein stability index         2.87
6   VGALLVYDIAKHLTYENVERWLKE [RAB11A]  protein stability index         2.54
7     EIKLVSDVTADSKVLEALKLKGAE [PLD5]  protein stability index         4.31
8   PVTNNLLEKCKTLVSQSNDLSSLR [SPACA9]  protein stability index         3.04

----------
assay: protein stability index of a GFP-peptide fusion (GPS, HEK-293T) (PSI 1-6); higher = more stable; conditions: treatment: MLN4924 1 uM, 8 h; c terminus: a fixed tail appended
Recorded protein stability index split into classes low (below 3), mid (3 to below 4), high (4 or more)

>>> df
                              residues   cat
 0    VFYCDPCRLRCHPPRGPLAKHRLV [TRIM9]   low
 1    CHCLKGFTLNPDKKTCRRINYCAL [MATN2]   low
 2   PLDILAQPLEASNPALEGLTQPLQ [DNAAF3]  high
 3    IKEQLIQEGLLDRCVSFQARFAEK [HDAC6]   low
 4  QHLPAQEQWDRLLVLYPTSLAIFS [PLEKHN1]   low
 5    RPRQRQRVYPKCTWLTTPKSTWPR [TCF25]   mid
 6   YTFIIVPKMLVDLLSQKKTISFLG [OR10K2]   low
 7     GLDFLHANCIVHRDLKPENILVTS [CDK4]   low
 8     IRMIVRGTLGSCSSSSECLEDSTM [PLK2]   low
 9     LLTNNSGTPKDHDSPENGADSFES [ETS2]  high
10    RYALQLQQIQGLISSIEAQLSELR [KRT13]   mid
11   VYHPSPEESRDPTLYANNVQRVMA [LPCAT4]   mid
12  KGGISETRIEKRIVITGDADIDHD [EPB41L3]  high
13    IVWNKKGKKVSNQRFEVIEFDDGS [PTPRD]   mid
14  PDAIRSRSNTLRERSQVRGSAPPR [PCDHGC5]  high

----------
test: protein stability index of a GFP-peptide fusion (GPS, HEK-293T) (PSI 1-6); higher = more stable; details: treatment: MLN4924 1 uM, 8 h; c terminus: a fixed tail appended
Binary classification by protein stability index, with 3 as an inclusive lower bound for 1; all other cases are 0.

>>> print(df.to_string())
                               residues  cat
 0  ERPAQRDCSFPGLPRHQDQPHHQP [TRAF3IP2]    1
 1      KEQEETIQRIDENVLGAQLDVEAA [STX5]    1
 2    ADESVLWQLFGPFGAVTNVKVIRD [ELAVL3]    0
 3      TTSPNVLWPTPGHLSPLVVHRQLS [ESR2]    0
 4      ALGILIFEMLSGFPPFFDDNPFGI [PRKX]    1
 5   ETTESQQNGEEGTSTPEDKESGQE [SMARCE1]    1
 6     PVVWWLNLLSIALYLLSGSIIAVA [POMT2]    1
 7     AREELMESRMRIESLSSQLSNLQK [LMNB1]    1
 8   KKDKCGRTPLHYAAANCHFHCIET [ANKRD44]    0
 9   LSLASLLVYVAAFSIGLGPMPWLV [SLC2A12]    0
10    GLDIGAQGEPLGYRQDDPSYRSFH [CTNNB1]    1
11    QLILFGLSNQLAVTFREENTIAFR [MCOLN1]    0
12      LEPGSADPLANGCQGVSEAAHRLA [PSD2]    1
13      LRRQKSLRLEWETQQELRKIREKE [IQUB]    1
14      KASGKNKHFKVQLVDNVYCIGQRR [NCK2]    1
15     IRQVLQGLDYLHSKCKIIHTDIKP [SRPK2]    0
16   RMLHRSTQTTNDGVCQSMCHDKYT [ZMYND11]    1
17      ADLLEEEVIISWSEKASKKYVSKE [EIF5]    1
18     WHLKQSPASPERDYSPYYKTIEEL [KRT13]    1
19     VSRMRTQRAFSIQTPEQYYFCYKA [PTPN9]    0
20   AAQEGHLELVKYLLAAGANVHATT [ANKRD17]    0
21     RLHHPHKSVQHVVLQALFYLLDRA [PTPN9]    0
22      EAKSAQPADGWKGERPRSEEDNEL [GCH1]    1

----------
test: protein stability index of a GFP-peptide fusion (GPS, HEK-293T) (PSI 1-6); higher = more stable; conditions: treatment: MLN4924 1 uM, 8 h; c terminus: a fixed tail appended
property.label: protein stability index

>>> print(df.to_string())
                            residues  measurement
0    LCLDLAPSETGNTFVSGGCDKKAM [GNB5]         4.02
1   LFGFSAVSIMYLVLVLAVQVHAWQ [JAGN1]         2.97
2   GVEPAPWAQLEAPARLLLQALQAG [FANCE]         2.92
3  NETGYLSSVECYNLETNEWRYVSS [KLHL14]         2.91
4   RAHPPQRPASSGGAHTLVNHGYAE [KCNA3]         3.94
